# Tested on: SF-539 CNS
# Assay comment: NCI tumour cell line growth inhibition, 48 h
Measured metric: log10 TGI (log10 of the value in µM)

| Compound | Measured metric | Measured result |
| --- | --- | --- |
| COCc1cc2c(cc1/C=C/[N+](=O)[O-])OCO2 | log10 TGI | 1.65 |
| COc1ccc2c(c1)OC(N(C(C)=O)C(C)=O)=C(C#N)C2c1ccc(F)cc1 (configuration not stated) | log10 TGI | 0.84 |
| Cc1ccc(NC(=O)/C(=N\Nc2ccc([N+](=O)[O-])cc2[N+](=O)[O-])C2C(=O)NC(=O)NC2=O)cc1 | log10 TGI | 1.96 |
| Oc1ccc(CCCCCCc2ccc(O)cc2)cc1 | log10 TGI | 1.14 |
| COc1ccc(-c2cc(N3CCN(c4ccccc4)CC3)c(C#N)c(=O)o2)cc1 | log10 TGI | 1.62 |
| CN(C)c1ccc(/C=C/C=C(/C#N)c2ccccc2)cc1 | log10 TGI | 1.81 |
| CC1OC2CC(=O)OC2C2=C1C(=O)c1c(O)c3c(c(O)c1C2=O)C1CC(O)C3(O)C(C)O1 (configuration not stated) | log10 TGI | 0.14 |
| CCc1cc(O)c(Cl)c(C)c1Cl | log10 TGI | 1.54 |
| CC(CNC(Cc1ccccc1)c1ccccc1)NC(Cc1ccccc1)c1ccccc1 (configuration not stated) | log10 TGI | 0.57 |
| CCN(Cc1ccccc1OC)c1ccc(CO)c(Cl)c1 | log10 TGI | 1.44 |
| COc1cc2c(c(OC)c1OC)-c1ccc(SC)cc1[C@H](OC(=O)c1ccccc1)CC2 | log10 TGI | -1.08 |
| Brc1ccccc1-c1ncc(-c2ccccc2)o1 | log10 TGI | 1.89 |

* * *

List of GI50 tested on MDA-MB-435.

| Molecule | Target under test | GI50 |
| --- | --- | --- |
| CCOP(=O)(OCC)C(NC(c1ccccc1)c1ccccc1)c1cccc2ccccc12 (centres undefined) | MDA-MB-435 | 9.18 µM |
| C[C@H]1[C@H](C)CC[C@]2(C(=O)O)CC[C@]3(C)C(=CC[C@@H]4[C@@]5(C)C/C(=C/c6cccnc6)[C@H](O)C(C)(C)[C@@H]5CC[C@]43C)[C@H]12 | MDA-MB-435 | 27.6 µM |
| ClCc1c(Cl)c(Cl)c(Cl)c(CCl)c1Cl | MDA-MB-435 | 2.16 µM |
| C=C1C(=O)O[C@H]2[C@H]1CC/C(COC(=O)N1CCC[C@H]1C(=O)Nc1ccc(OC)c(C(N)=O)c1O)=C\CC[C@@]1(C)O[C@@H]21 | MDA-MB-435 | 3.8 µM |
| O=C1/C(=C/c2ccc(O)cc2)COc2ccc(-c3ccccc3)cc21 | MDA-MB-435 | 4.23 µM |
| C#CC[C@@H]1C[C@]2(C)[C@H]3CC=C4[C@H]5CC(C)(C)CC[C@]5(C(=O)NCCCCN)CC[C@@]4(C)[C@]3(C)CC[C@H]2C(C)(C)[C@H]1OC(C)=O | MDA-MB-435 | 1.69 µM |
| CC(CNC(Cc1ccccc1)c1ccccc1)NC(Cc1ccccc1)c1ccccc1 (centres undefined) | MDA-MB-435 | 2.1 µM |
| CO/N=C(\C)c1ccc(Nc2cc(-c3ccccc3)nc3c(O)cccc23)cc1 | MDA-MB-435 | 15.5 µM |
| COc1cc(Nc2nc(N[C@H]3CCCC[C@@H]3N)nc3cc[nH]c(=O)c23)cc(OC)c1 | MDA-MB-435 | 0.997 µM |

* * *

Reported TGI values follow for various molecules
# Test system: KM12 colon
# Assay comment: NCI tumour cell line growth inhibition, 48 h
Measured metric: TGI

| Molecule | Measured result |
| --- | --- |
| Cc1ccc2c(n1)C(=O)c1ccccc1C2=O | > 100 µM |
| CC(=O)Oc1ccc(O)c(O)c1C/C=C(\C)CC/C=C(\C)CC/C=C(\C)CCC=C(C)C | 11.5 µM |
| C(=C\C(SCc1ccccc1)SCc1ccccc1)/c1ccccc1 | > 10 µM |
| C[C@H](O)C1CC(Cn2nnc3c(N)ncnc32)C1(C)C (stereo not given in full) | > 100 µM |
| Clc1nc(Cl)c2ncn(Cc3ccc(COc4cccc(OCc5ccc(Cn6cnc7c(Cl)nc(Cl)nc76)cc5)c4)cc3)c2n1 | > 100 µM |

* * *

# Tested on: RXF 393 renal
# Assay comment: NCI tumour cell line growth inhibition, 48 h
Label scheme for TGI: lower than 4 µM is False, 4 µM and above is True.

| Compound | Cat |
| --- | --- |
| O=C(CCl)N1c2ccccc2Sc2c1ccc1ccccc21 | False |
| O=c1oc2ccccc2n1CCN1CCCCC1 | True |
| CN1CN(c2ccccc2)C2(CCN(CCc3csc4ccccc34)CC2)C1=O | True |
| c1cnc2[nH]cc(-c3csc(-c4cn(CCCCN5CCOCC5)c5ccccc45)n3)c2c1 | False |
| CCCCCCCCCCCCCCCCCCCCCC(=O)Nc1ccn(C2OC(CO)C(O)C2O)c(=O)n1 (stereo not given) | True |
| CSc1nc2c(nc(N)n2C2OCC(O)C(O)C2O)c(=O)n1C (stereo not given) | True |
| C=C1CC[C@@H]2[C@](C)(COC(C)=O)[C@H](OC(C)=O)CC[C@@]2(C)[C@@H]1CC(Nc1ccc(S(=O)(=O)Nc2nccc(C)n2)cc1)C1=CCOC1=O (stereo not given in full) | True |
| O=C(CSCC(=O)N/N=C\c1ccc(-c2ccccc2)cc1)N/N=C\c1ccc(-c2ccccc2)cc1 | True |
| Cc1cccc(NC(=S)Nc2ccccc2Cl)n1 | True |
| CN(CCOc1ccc(C#N)cc1)CCOc1ccc(C#N)cc1 | True |

* * *

# Tested on: HCT-15 colon
# Assay comment: NCI tumour cell line growth inhibition, 48 h
Reported TGI values follow for various compounds
Measured metric: TGI

| Compound | Measured metric | Measured result |
| --- | --- | --- |
| C=C1C(=O)OC2C1CC(O)/C(C)=C\CCC1(C)OC21 (stereo not given) | TGI | 33.5 µM |
| CN=S(=O)(c1ccccc1)c1ccccc1 | TGI | > 100 µM |
| N#C/C(=C\c1cccc(O)c1)C(N)=O | TGI | > 100 µM |
| CCOC(=O)CCC(NC(=O)c1ccc(N2CCN(c3c(C)nc(N)nc3N)CC2)cc1)C(=O)OCC (stereo not given) | TGI | > 100 µM |
| C=CC[C@H]1[C@H](O[Si](C)(C)C(C)(C)C)C=CC(=O)[C@@H]1CC(=O)N(Cc1ccccc1)Cc1ccccc1 | TGI | 35.6 µM |
| COc1ccc(-c2cc(-c3cc(OC)c(OC)c(OC)c3)cc(-c3cc4ccccc4oc3=O)n2)cc1 | TGI | > 100 µM |
| COc1c(N2CCN(CN3C(=O)C(=Nc4ccc(S(=O)(=O)Nc5ncccn5)cc4)c4ccccc43)C(C)C2)c(F)cc2c(=O)c(C(=O)O)cn(C3CC3)c12 (stereo not given) | TGI | > 50 µM |
| C[C@H](O)C1CC(Cn2nnc3c(N)ncnc32)C1(C)C (stereo not given in full) | TGI | > 100 µM |
| COc1cc([C@@H]2c3cc4c(cc3[C@@H](NC(=O)c3ccccc3)C3COC(=O)[C@@H]32)OCO4)cc(OC)c1O (stereo not given in full) | TGI | > 100 µM |
| O=C1CCCCc2cccc(O)c21 | TGI | > 100 µM |

* * *

# Test system: HCT-116 colon
# Assay comment: NCI tumour cell line growth inhibition, 48 h
Measured metric: TGI (µM)

| Compound | Measured metric | Qualifying sign | Measured result |
| --- | --- | --- | --- |
| CCCCn1cnc2c(SC)ncnc21 | TGI | > | 100 |
| CC(C)(C)c1ccc(S(=O)(=O)N[C@H]2CC[C@H]3[C@@H]4CCc5cc(OS(=O)(=O)O)ccc5[C@H]4CC[C@]23C)cc1 | TGI | = | 3.35 |
| CC(=O)NC1=C(C)C(=O)c2c(nc3n2CCC3O)C1=N (stereo not given) | TGI | = | 6.88 |
| COc1cc[nH]c1/C=C1\C(=O)Nc2ccc(F)c(I)c21 | TGI | > | 25 |
| Cn1nc(-c2ccccc2)c(C(=O)/C=C/c2ccccc2)c(N2CCOCC2)c1=O | TGI | = | 32.8 |

* * *

# System: SK-MEL-5 melanoma
# Assay comment: NCI tumour cell line growth inhibition, 48 h
Measured metric: TGI

| Compound | Target under test | Measured metric | Measured result |
| --- | --- | --- | --- |
| N#CC1(C#N)NC(c2ccsc2)C(C#N)(C#N)NC1c1ccsc1 (centres undefined) | SK-MEL-5 melanoma | TGI | > 100 µM |
| c1ccc(-c2nn(-c3ccccc3)[n+](-c3ccccc3)n2)cc1 | SK-MEL-5 melanoma | TGI | 14.1 µM |
| N#C/C(=C\c1cccc(O)c1)C(N)=O | SK-MEL-5 melanoma | TGI | > 100 µM |
| CCN(CC)C(=S)SS(=O)(=O)c1ccc([N+](=O)[O-])cc1 | SK-MEL-5 melanoma | TGI | 29.2 µM |
